# targetOrTestSystem: human vasopressin V1b receptor (Homo sapiens, UniProt P47901)
# Construct: expressed in transfected cells; host or cells: CHO-K1 (cell line hV1b_3H2_CHO), membrane preparation
# Sequence (P47901 whole entry): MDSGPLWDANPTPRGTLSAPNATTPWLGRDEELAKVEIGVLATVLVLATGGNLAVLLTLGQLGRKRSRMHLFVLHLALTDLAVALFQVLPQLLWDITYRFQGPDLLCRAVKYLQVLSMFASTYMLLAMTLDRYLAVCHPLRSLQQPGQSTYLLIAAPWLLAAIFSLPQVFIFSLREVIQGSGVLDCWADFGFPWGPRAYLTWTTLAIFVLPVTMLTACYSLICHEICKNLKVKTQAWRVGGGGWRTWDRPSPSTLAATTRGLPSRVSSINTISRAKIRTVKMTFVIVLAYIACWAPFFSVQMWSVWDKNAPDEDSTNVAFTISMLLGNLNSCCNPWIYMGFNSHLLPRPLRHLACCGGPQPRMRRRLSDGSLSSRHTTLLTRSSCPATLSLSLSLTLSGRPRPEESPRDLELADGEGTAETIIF
# methodNotes: Vasopressin V1b receptor binding test
# details: membranes of CHO-K1 cells, displacement of 1.5 nM 3H-AVP
Where a name gives a salt, the structure may show the parent alone.
recordedEndpoint: Ki

>  <compound>
CCOc1ccccc1C1(N2CCN(c3ccncc3)CC2)C(=O)N(S(=O)(=O)c2ccc(C)cc2OC)c2ccc(C#N)cc21 (stereo not drawn) [Example 9]

>  <Ki>
50 to 500 nM

$$$$
>  <compound>
COc1ccc(S(=O)(=O)N2C(=O)C(c3ccccc3OC)(N3CC4CN(c5ccncc5)CC4C3)c3cc(Cl)ccc32)c(OC)c1 (stereo not drawn) [Example 19]

>  <Ki>
< 50 nM

$$$$
>  <compound>
CCOc1ccccc1C1(N2CCN(c3ccncc3)CC2)C(=O)N(S(=O)(=O)c2ccc(F)cc2F)c2ccc(C#N)cc21 (racemic) [Example 72, trifluoroacetate]

>  <Ki>
50 to 500 nM

$$$$
>  <compound>
CCOc1ccc(OC)cc1C1(N2CCN(c3ccnc(C(C)C)c3)CC2)C(=O)N(S(=O)(=O)c2ccc(OC)cc2OC)c2ccc(C#N)cc21 (racemic) [Example 92]

>  <Ki>
< 50 nM

$$$$

Prompt: # query: Ki of entry CCOc1ccccc1C1(N2CCN(c3cccnc3)CC2)C(=O)N(S(=O)(=O)c2ccc(OC)cc2OC)c2ccc(C#N)cc21 (stereo not drawn) [Example 2]
Completion: 50 to 500 nM

Prompt: Cool, now CCOc1ccc(S(=O)(=O)N2C(=O)C(c3ccccc3OCC)(N3CCN(c4ccncc4)CC3)c3cc(C#N)ccc32)c(OC)c1 (racemic) [Example 77, hydrochloride]
Completion: 50 to 500 nM
